Let's look at some binders and their measured Kd.
measurement target: T1, cynomolgus monkey latent myostatin (cynomolgus monkey, UniProt Q95J86 25-266; Q95J86 267-375, limits assumed)
T1 construct: also called cyno latent myostatin
T1 sequence 1: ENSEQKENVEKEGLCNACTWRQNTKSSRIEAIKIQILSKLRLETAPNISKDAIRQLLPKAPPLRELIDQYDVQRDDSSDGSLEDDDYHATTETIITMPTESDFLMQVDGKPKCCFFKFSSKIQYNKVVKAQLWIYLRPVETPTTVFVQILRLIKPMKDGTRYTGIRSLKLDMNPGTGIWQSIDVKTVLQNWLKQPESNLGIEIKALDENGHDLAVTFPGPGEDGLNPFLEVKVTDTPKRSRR
T1 sequence 2: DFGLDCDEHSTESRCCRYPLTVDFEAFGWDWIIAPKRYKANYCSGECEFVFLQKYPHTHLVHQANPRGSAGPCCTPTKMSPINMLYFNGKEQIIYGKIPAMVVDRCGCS
procedure details: SPR 37C pH7.4; pH 7.4
// units = nM; emit number, no label

Worked examples follow.
binder="MS_M103205H1186-SG1/M103202L889-SK1 (antibody, human IgG1, kappa, V domains shown, also called MS1032LO18-SG1) VH: QVTLKESGPVLVKPTETLTLTCTVSGIDLSHDDISWVRQAPGKGLEWVGIISYAGKKYYASWAKGRLTISKDTSKNQVVLTMTNMDPVDTATYYCARGVPAYSHGGDLWGQGTLVTVSS VL: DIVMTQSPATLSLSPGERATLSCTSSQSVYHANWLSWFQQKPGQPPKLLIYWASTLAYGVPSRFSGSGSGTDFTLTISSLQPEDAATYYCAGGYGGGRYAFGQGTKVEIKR" units_symbol=nM recorded_number=0.354
binder="MS_M103245H795-SG1/M103202L1045-SK1 (antibody, human IgG1, kappa, V domains shown, also called MS1032LO21-SG1) VH: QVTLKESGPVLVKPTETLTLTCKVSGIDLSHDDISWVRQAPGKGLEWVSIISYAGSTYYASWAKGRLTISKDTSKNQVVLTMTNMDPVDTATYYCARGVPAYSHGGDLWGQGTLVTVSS VL: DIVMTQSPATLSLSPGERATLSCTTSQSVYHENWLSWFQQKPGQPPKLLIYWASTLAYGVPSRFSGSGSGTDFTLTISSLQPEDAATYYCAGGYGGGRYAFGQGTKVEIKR" units_symbol=nM recorded_number=0.309

Now for another entry.
Fill blank: measured Kd of the binder MS_M103205H1047-SG1/M103202L889-SK1 (antibody, human IgG1, kappa, V domains shown, also called MS1032LO11-SG1) VH: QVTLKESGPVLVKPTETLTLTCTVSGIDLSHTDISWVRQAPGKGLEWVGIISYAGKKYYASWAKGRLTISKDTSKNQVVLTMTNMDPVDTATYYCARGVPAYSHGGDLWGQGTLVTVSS VL: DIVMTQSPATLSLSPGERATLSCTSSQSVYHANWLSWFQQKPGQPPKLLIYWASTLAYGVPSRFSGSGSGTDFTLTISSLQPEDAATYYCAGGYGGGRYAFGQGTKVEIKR is ____.
0.502
